Biological target: T1, IL-11 protein (UniProt P20809 22-199, limits assumed)
T1 construct: also called IL-11 antigen
T1 sequence (looked up): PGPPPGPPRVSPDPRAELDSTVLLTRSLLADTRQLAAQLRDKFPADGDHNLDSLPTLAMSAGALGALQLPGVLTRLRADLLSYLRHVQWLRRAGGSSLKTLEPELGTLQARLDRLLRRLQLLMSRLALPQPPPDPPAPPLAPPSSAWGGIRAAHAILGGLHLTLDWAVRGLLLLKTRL
Assay: SPR (Biacore), antibody captured, 400 nM IL-11 as analyte
Reported Metric: Kd (nM)
Reply with just the number (in nM).

Binder	Measurement
VH2 + VL4-scFv (scFv, V domains shown, Humanized 5-20E11-5F2; CHO supernatant; Called scFv, but heavy and light vectors were co-transfected) VH: QVQLVQSGAEVKKPGASVKVSCKASDYTFTNYWLGWVRQAPGQGLEWIGHIYPGGGYTNYNEKFKGRVTMTADTSTSTVYMELSSLRSEDTAVYFCARVRSGNDALDFWGQGTLVTVSS VL: EIVLTQSPATLSLSPGERATLSCRASESVDEYGISFMNWFQQKPGQAPRLLIYSASNQGSGIPARFSGSGSGTDFTLTISSLEPEDFAMYFCQQSKEVPWTFGGGTKLEIK	10.8

Query binder follows.
Reported Kd of VH3 + VL1-scFv (scFv, V domains shown, Humanized 5-20E11-5F2; CHO supernatant; Called scFv, but heavy and light vectors were co-transfected) VH: QVQLVQSGAEVKKPGASVKVSCKASDYTFTNYWLGWVRQAPGQGLEWIGHIYPGGGYTNYNEKFKGRATLTADTSTSTVYMELSSLRSEDTAVYFCARVRSGNDALDFWGQGTLVTVSS VL: EIVLTQSPATLSLSPGERATLSCRASESVDEYGISFMNWYQQKPGQAPRLLIYSASNQGSGIPARFSGSGSGTDFTLTISSLEPEDFAVYYCQQSKEVPWTFGGGTKLEIK : 22.5
